- ASSAY_SYSTEM: SNARE complex (VAMP, syntaxin and SNAP-25 bound to GST) (UniProt P60880)
- Sequence (P60880 whole entry, one chain of several): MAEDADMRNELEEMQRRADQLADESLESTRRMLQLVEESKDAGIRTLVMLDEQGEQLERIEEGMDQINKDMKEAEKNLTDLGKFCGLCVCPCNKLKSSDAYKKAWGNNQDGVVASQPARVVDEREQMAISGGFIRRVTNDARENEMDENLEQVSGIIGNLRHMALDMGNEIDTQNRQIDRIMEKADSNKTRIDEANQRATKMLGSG
- TEST_DESCRIPTION: competition ELISA: VAMP on plate, SNAP-25-GST + syntaxin, anti-GST detection; compound at 2.5 mM
Non-standard residues stand in square brackets, D forms with d. Met(O2) = CS(=O)(=O)CC[C@H](N)C(=O)O
Please mark yes (1) if the recorded % inhibition formation SNARE complex is equal to or greater than 60%, and no (0) if it falls below.

                                     binder  category
0      Ac-EDLKRWM-NH2 [Ac-SEQ ID NO:14-NH2]   yes (1)
1      Ac-DHFQQRM-NH2 [Ac-SEQ ID NO:24-NH2]    no (0)
2  Ac-DHFLDW[Met(O2)]-NH2 [Ac-SEQ ID NO:61-NH2]    no (0)
3       Ac-QHLHNVM-NH2 [Ac-SEQ ID NO:3-NH2]   yes (1)
